B1: HHH_rd1_0493 (parent)
chain: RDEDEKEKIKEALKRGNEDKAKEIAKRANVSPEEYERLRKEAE

- Variants of: B1
- experiment: folding stability dG (cDNA display proteolysis); higher = more stable
- measurement-context: PBS, room temperature
readout-kind: folding stability dG (kJ/mol)
Numbers only, in kJ/mol.

(Q) I'd like to know its folding stability dG. The variant in question is E41P
(A) 3.35

(Q) Which folding stability dG value is on record for E36R ?
(A) 6.98

(Q) If you can, please state the reported folding stability dG value of N29A .
(A) 9.79

List the reported folding stability dG of each variant below.
1. R37D
2. K10W

(A)
1: 8.44; 2: 6.59
